Every entry's value here was drawn from ChEMBL document CHEMBL1124768.

Tested on: Rattus norvegicus
RUN_DESCRIPTION: Inhibition of carrageenan-induced 4 hours after 50 mg/kg i.p. administration in rats.
Assay type: functional
RUN_PARAMETERS: ip, route intraperitoneal
Where inhibition in vivo at 50 mg/kg equals or exceeds 20%, the correct label is Y; where it does not, the label is N.

[
  {
    "COMPOUND": "O=C(O)CCON=C1c2ccccc2-c2ccccc21",
    "LABEL_VALUE": "N"
  },
  {
    "COMPOUND": "CC(C)=NOCCC(=O)O",
    "LABEL_VALUE": "Y"
  },
  {
    "COMPOUND": "O=C(O)CCON=C(c1ccccc1)c1ccccc1",
    "LABEL_VALUE": "N"
  },
  {
    "COMPOUND": "O=C(O)CCO/N=C\\c1ccccc1",
    "LABEL_VALUE": "N"
  },
  {
    "COMPOUND": "O=C(O)Cc1ccccc1Nc1c(Cl)cccc1Cl [DICLOFENAC]",
    "LABEL_VALUE": "Y"
  },
  {
    "COMPOUND": "C/C(=N\\OCCC(=O)O)C1CCCCC1",
    "LABEL_VALUE": "N"
  },
  {
    "COMPOUND": "C/C(=N\\OCCC(=O)O)C1CC1",
    "LABEL_VALUE": "N"
  },
  {
    "COMPOUND": "O=C(O)CCO/N=C1/CC2CCC1C2 (centres undefined)",
    "LABEL_VALUE": "N"
  },
  {
    "COMPOUND": "O=C(O)CCO/N=C/C1CCCCC1",
    "LABEL_VALUE": "N"
  },
  {
    "COMPOUND": "CC(C)C(=NOCCC(=O)O)C(C)C",
    "LABEL_VALUE": "N"
  },
  {
    "COMPOUND": "C/C(=N\\OCCC(=O)O)c1ccccc1",
    "LABEL_VALUE": "Y"
  },
  {
    "COMPOUND": "CCC(/C=N/OCCC(=O)O)CC",
    "LABEL_VALUE": "N"
  },
  {
    "COMPOUND": "CCCC(CCC)=NOCCC(=O)O",
    "LABEL_VALUE": "N"
  },
  {
    "COMPOUND": "O=C(O)CCON=C1C2CC3CC(C2)CC1C3",
    "LABEL_VALUE": "N"
  }
]
